- EXPERIMENTAL_PROTOCOL: small-molecule microarray binders of probe aLefty2, primary screen, biochemical, biotinylated probe, 635/667 nm fluorescence (AID 1094);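 also: score merges spot fluorescence near 667 nm with spot signal-to-noise ratio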
- STATED_CONDITIONS: higher = more signal
QUANTITY_NAME: composite z-score

Request: Check the records and state composite z-score for CC(C)c1ccc(NN2C(C(O)C(c3ccccc3)c3ccccc3)C=CC3C(=O)N(c4ccccc4)C(=O)C32)cc1 (configuration not stated)
Result: 0.0399

---
Request: Check the records and state composite z-score for CC(C)(C)OC(=O)CC[C@]12N=C(c3ccc(OCCCO)cc3)O[C@H]1c1ccccc1N(CCS(=O)(=O)c1ccccc1)C2=O
Result: 0.101

Request: Check the records and state composite z-score for COC(=O)c1c(CC[C@@H](CO)NC(=O)N[C@H](Cn2cc(Cc3ccccc3)nn2)C(C)C)oc(C(C)=O)c1C(=O)OC
Result: -0.166

Request: Check the records and state composite z-score for COCCOC(=O)N1C(=O)[C@@]2(c3cc(C#CC4=CCCCC4)ccc31)[C@H](C(=O)N1CCc3cc(OC)c(OC)cc3C1)[C@H]1C(=O)O[C@H](c3ccccc3)[C@H](c3ccccc3)N1[C@@H]2c1ccc(OCCO)cc1
Result: -0.119

Request: Check the records and state composite z-score for O=C(NCC(F)(F)F)[C@@H]1c2ccccc2C(=O)N(C2CCCCC2)[C@H]1c1ccc(CO)cc1
Result: -0.117

Request: Check the records and state composite z-score for CC1(C)[C@@H]2CC(C(O)C3C=CC4C(=O)N(c5ccccc5)C(=O)C4N3Nc3ccccc3)=C[C@H]1C2 (some centres not stated)
Result: -0.0008

Request: Check the records and state composite z-score for O=C1C2C=CC(C(O)C(c3ccccc3)c3ccccc3)N(n3cnnc3)C2C(=O)N1Cc1ccccc1 (configuration not stated)
Result: -0.109

Request: Check the records and state composite z-score for CO[C@H]1O[C@H](CO)[C@@H](OC(=O)Nc2ccc(Br)cc2)[C@H](OC(=O)c2cc3ccccc3[nH]2)[C@H]1OC(=O)c1cc2ccccc2[nH]1
Result: 0.0166

Request: Check the records and state composite z-score for CCCCC(=C=CC[C@@H](O)c1ccccc1OCCO)CCO
Result: -0.192

Request: Check the records and state composite z-score for COC(=O)[C@@]1(Cc2ccc(OC)cc2)[C@H]2c3cc(C(=O)N4CCCC4)n(Cc4ccsc4Br)c3C[C@H]2CN1C(=O)c1ccccc1
Result: 0.498

The measured values listed here are drawn from PubChem BioAssay.
